Assay details: Blood level screening after oral dose
Assay type: in vivo, Sprague-Dawley rats
Assay setup: rat, oral gavage 10 mg/kg, 3 hr
Readout kind: Plasma Levels (μM) 3 hr (µM)

# count of solved cases: 3
{"columns": ["Molecule", "Plasma Levels (μM) 3 hr (µM)"],
 "data": [
  ["Cc1cccc(Cc2nnc(C(=O)C(NC(=O)Cn3c(=O)c(N)cc4ccccc43)C(C)C)o2)c1 (racemic)", 1.393],
  ["Cc1cccc(Cc2nnc(C(=O)[C@@H](NC(=O)Cn3c(=O)ncc4ccccc43)C(C)C)o2)c1", 0.83],
  ["Cc1cccc(Cc2nnc(C(=O)[C@@H](NC(=O)CN3C(=O)NC4(CCCCC4)C3=O)C(C)C)o2)c1", 0.289]
]}

I. CC(C)[C@H](NC(=O)CN1C(=O)NC(=Cc2cccnc2)C1=O)C(=O)c1noc(Cc2cccc(C(F)(F)F)c2)n1
II. CCc1cccc(Cc2nnc(C(=O)[C@@H](NC(=O)CN3C(=O)NC(=Cc4cccnc4)C3=O)C(C)C)o2)c1
III. CC(C)[C@H](NC(=O)CN1C(=O)N[C@H](Cc2ccc(O)cc2)C1=O)C(=O)c1nnc(Cc2ccc3c(c2)OCO3)o1
IV. COC(=O)CCC[C@H]1NC(=O)N(CC(=O)N[C@H](C(=O)c2nnc(Cc3cccc(C)c3)o2)C(C)C)C1=O
V. CC(C)[C@H](NC(=O)CN1C(=O)NC(c2ccncc2)(N2C(=O)CCC2=O)C1=O)C(=O)c1noc(Cc2cccc(C(F)(F)F)c2)n1 (some centres unmarked)
Ask | # sort list by recorded Plasma Levels (μM) 3 hr, greatest to least The reply should contain the labels ordered as requested.
Reply | IV, II, III, I, V
(IV: 0.704 µM, II: 0.475 µM, III: 0.33 µM, I: 0.004 µM, V: 0 µM)

I. Cc1cccc(Cc2nnc(C(=O)[C@@H](NC(=O)CN3C(=O)N[C@@H](C(C)C)C3=O)C(C)C)o2)c1
II. Cc1cccc(Cc2nnc(C(=O)[C@@H](NC(=O)CN3C(=O)N[C@@H](CC(C)C)C3=O)C(C)C)o2)c1
Ask | Pick one: I or II . Which one has the lower reported Plasma Levels (μM) 3 hr? Respond using the label that marks the chosen record.
Reply | I
(I: 0.5 µM, II: 0.74 µM)

====

Target entity: elastase derived from human sputum (HSE) (Homo sapiens, UniProt P08246)
Construct: prepared from commercially available HSE (875 U/mg protein, SE-563, Elastin Product Co., Inc., Missouri, USA); purchased Elastin Product Co., Inc., Missouri, USA SE-563; host or cells: human sputum (natural enzyme)
Sequence (P08246 30-247 limits assumed): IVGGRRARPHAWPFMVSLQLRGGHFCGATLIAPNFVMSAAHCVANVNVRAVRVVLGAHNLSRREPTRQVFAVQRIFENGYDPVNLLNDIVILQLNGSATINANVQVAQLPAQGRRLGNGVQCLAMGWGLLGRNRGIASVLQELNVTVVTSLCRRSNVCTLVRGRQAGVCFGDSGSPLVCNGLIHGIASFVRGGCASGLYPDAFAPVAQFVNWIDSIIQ
Assay details: In vitro inhibition of elastase (ONO-PO series)
Format: biochemical
Assay setup: substrate N-methoxysuccinyl-Ala-Ala-Pro-Val-p-nitroaniline, 37° C., pH 8.0, IC50 converted to Ki by Dixson plot
Readout kind: Ki (nM)

# count of solved cases: 4
{"columns": ["Compound", "Target entity", "Ki / nM"],
 "data": [
  ["CC(C)c1nnc(C(=O)[C@@H](NC(=O)Cn2c(-c3ccc(F)cc3)ncc(N)c2=O)C(C)C)o1", "elastase derived from human sputum (HSE) (Homo sapiens, UniProt P08246)", 10.7],
  ["CC(C)[C@@H](NC(=O)Cn1c(-c2ccccc2)nccc1=O)C(=O)c1nnc(C(C)(C)C)o1", "elastase derived from human sputum (HSE) (Homo sapiens, UniProt P08246)", 62.2],
  ["CC(C)[C@H](NC(=O)Cn1c(-c2ccc(F)cc2)ncc(N)c1=O)C(=O)c1nnc(C(C)(C)c2ccc(O)c(O)c2)o1", "elastase derived from human sputum (HSE) (Homo sapiens, UniProt P08246)", 2.98],
  ["CC(C)[C@H](NC(=O)CN1C(=O)N[C@H](C(C)C)C1=O)C(=O)c1nnc(C(C)(C)c2ccccc2)o1", "elastase derived from human sputum (HSE) (Homo sapiens, UniProt P08246)", 25.9]
]}

1. CC(C)[C@H](NC(=O)Cn1c(-c2ccccc2)cccc1=O)C(=O)c1nnc(C(C)(C)C)o1
2. CC(C)[C@H](NC(=O)CN1C(=O)N[C@H](Cc2c[nH]c3ccccc23)C1=O)C(=O)c1nnc(C(C)(C)C)o1
Ask | Pick one: 1 or 2 . Which one has the lower reported Ki? Respond using the label that marks the chosen record.
Reply | 2
(2: 163 nM, 1: 4280 nM)

a. CC(C)C(NC(=O)Cn1c(-c2ccccc2)nccc1=O)C(=O)c1nnc(C(C)(C)C)o1 (racemic)
b. CC(C)[C@H](NC(=O)Cn1c(-c2cccnc2)ncc(N)c1=O)C(=O)c1nnc(C(C)(C)C)o1
Ask | Select the item with the higher value of Ki from the options a and b listed. Respond using the label that marks the chosen record.
Reply | a

All values here come from patent US6656911B2.
